settings: in isopropyl acetate, 313.1 K
parameter: solubility (mole fraction)
Number only, please.

Challenge: Item "OC[C@@H](O)CN1CCN(c2ccccc2)CC1" has what recorded solubility (mole fraction)?
Response given: 0.00132

---

settings: in n-propanol, 318.1 K
parameter: solubility (mole fraction)
// no unit, no text: just the number

Challenge: Which measured solubility (mole fraction) value corresponds to "OC[C@@H](O)CN1CCN(c2ccccc2)CC1" ?
Response given: 0.00501

---

settings: in n-propyl acetate, 313.1 K
parameter: solubility (mole fraction)

Challenge: Looking for the measured solubility (mole fraction) of "OC[C@@H](O)CN1CCN(c2ccccc2)CC1" , can you help?
Response given: 0.00173

---

settings: in n-pentyl acetate, 313.1 K
parameter: solubility (mole fraction)
Hey, just send me the number, nothing else.

Challenge: Report solubility (mole fraction) for "OC[C@@H](O)CN1CCN(c2ccccc2)CC1" please.
Response given: 0.0015

---

settings: in n-butyl acetate, 318.1 K
parameter: solubility (mole fraction)
Form field (numeric): enter value without unit.

Challenge: State the recorded solubility (mole fraction) for this entry: "OC[C@@H](O)CN1CCN(c2ccccc2)CC1"
Response given: 0.00207

---

settings: in n-butyl acetate, 288.1 K
parameter: solubility (mole fraction)
Output: the number by itself.

Challenge: Which solubility (mole fraction) is listed for "OC[C@@H](O)CN1CCN(c2ccccc2)CC1" ?
Response given: 0.000417

---

settings: in isopropyl acetate, 303.1 K
parameter: solubility (mole fraction)
Give the figure only, with no unit attached.

Challenge: Request the reported solubility (mole fraction) associated with "OC[C@@H](O)CN1CCN(c2ccccc2)CC1"
Response given: 0.000798

---

settings: in n-pentyl acetate, 318.1 K
parameter: solubility (mole fraction)

Challenge: Can you look up the measured solubility (mole fraction) of "OC[C@@H](O)CN1CCN(c2ccccc2)CC1" for me?
Response given: 0.00194

---

settings: in n-propyl acetate, 293.1 K
parameter: solubility (mole fraction)
I only need the number, thanks.

Challenge: Can you look up the measured solubility (mole fraction) of "OC[C@@H](O)CN1CCN(c2ccccc2)CC1" for me?
Response given: 0.000613

---

settings: in isopropanol, 313.1 K
parameter: solubility (mole fraction)
// no unit string in output, number only

Challenge: Which measured solubility (mole fraction) value corresponds to "OC[C@@H](O)CN1CCN(c2ccccc2)CC1" ?
Response given: 0.00057

---

settings: in isopropanol, 323.1 K
parameter: solubility (mole fraction)
Please give only the number in your answer, with no unit.

Challenge: I'd like to know its solubility (mole fraction). The compound in question is "OC[C@@H](O)CN1CCN(c2ccccc2)CC1"
Response given: 0.000852

---

settings: in ethyl acetate, 303.1 K
parameter: solubility (mole fraction)
Respond with the number and no other words.

Challenge: What value of solubility (mole fraction) has been recorded for this entry: "OC[C@@H](O)CN1CCN(c2ccccc2)CC1"
Response given: 0.00104

---

settings: in isopropanol, 298.1 K
parameter: solubility (mole fraction)
# answer = number (no unit)

Challenge: Endpoint output: solubility (mole fraction) of "OC[C@@H](O)CN1CCN(c2ccccc2)CC1" . Value?
Response given: 0.000302

---

settings: in n-hexanol, 298.1 K
parameter: solubility (mole fraction)

Challenge: Fill in the blank: the reported solubility (mole fraction) of "OC[C@@H](O)CN1CCN(c2ccccc2)CC1" is ____.
Response given: 0.00181
